I'd appreciate it if you could supply cell viability values for the items below.
- System: P12-Ichikawa
- measurementProtocol: cell viability relative to DMSO control; higher = less cytotoxic
- particulars: HPLM + 10% dialyzed FBS; 48 h; 0.569 µM
Numbers only, in %.

| molecule | endpointName | endpointUnit | testValue |
| --- | --- | --- | --- |
| NC(=O)c1cccc(N)c1 | cell viability | % | 117 |
| COc1cccc2c1C(=O)c1c(O)c3c(c(O)c1C2=O)C[C@@](O)(C(C)=O)C[C@@H]3O[C@H]1C[C@H](N)[C@H](O)[C@H](C)O1 | cell viability | % | 6.62 |
| CNCC(O)C(O)C(O)C(O)CO.O=C(O)c1ccc(-c2cc3cccnc3c(-c3ccc4nonc4c3)n2)cc1 | cell viability | % | 120 |
| C[N+](C)([O-])CCNc1ccc(NCC[N+](C)(C)[O-])c2c1C(=O)c1c(O)ccc(O)c1C2=O | cell viability | % | 83.2 |
| CN(C)c1ccc(Nc2nc(N)n(C(=O)c3c(F)cccc3F)n2)cc1 | cell viability | % | 121 |
| O=[N+]([O-])c1cnc(Sc2nnc(O)n2-c2ccc3c(c2)OCCO3)s1 | cell viability | % | 94.2 |

Please supply cell viability for each of the following items, keeping them in order.
1. O=C1N\2CCC3=C([NH]C4=C3C=CC=C4)C2=N/C5=CC=CC=C15
2. CC[C@@]1(O)C[C@H](O[C@H]2C[C@H](N(C)C)[C@H](O[C@H]3C[C@H](O)[C@H](O[C@H]4CCC(=O)[C@H](C)O4)[C@H](C)O3)[C@H](C)O2)c2c(cc3c(c2O)C(=O)c2c(O)cccc2C3=O)[C@H]1C(=O)OC
3. COc1cc(OC)c(NC(=O)Nc2cc(C)on2)cc1Cl

Response:
1: 129; 2: 109; 3: 102

Please supply cell viability for each of the following items, keeping them in order.
1. CC(C)c1ccccc1Cc1cc(C(=O)Nc2ccc([S+](=O)([O-])c3ccccc3C(C)(C)C)cc2)c(O)c(O)c1O
2. Cc1ccc(-c2ncn(-c3ccc(Nc4nccc(-c5cccc(N6CCOCC6)c5)n4)cc3)n2)cn1
3. CC(C)(C)NC(=O)[C@@H]1CN(Cc2cccnc2)CCN1C[C@@H](O)C[C@@H](Cc1ccccc1)C(=O)N[C@H]1c2ccccc2C[C@H]1O.O=S(=O)(O)O
4. Cc1cc(Cl)ccc1OCCCC(=O)NO
5. COc1cc(-c2nn(C3CCC(N4CCN(C(C)=O)CC4)CC3)c3ncnc(N)c23)ccc1NC(=O)c1cc2ccccc2n1C (stereo unspecified)
6. Cc1cc(O)c2c(c1)C(=O)c1cc(O)cc(O)c1C2=O
7. OCCCNc1cc(-c2ccnc(Nc3cccc(Cl)c3)n2)ccn1

Response:
[106, 5.93, 121, 101, 107, 110, 65.4]

Please supply cell viability for each of the following items, keeping them in order.
1. COc1cc(N[S+](=O)([O-])c2ccc(N)cc2)nc(OC)n1
2. OC(COC1=C2C(=O)\C=C(/OC2=CC=C1)C([O-])=O)COC3=C4C(=O)\C=C(/OC4=CC=C3)C([O-])=O
3. CC(=O)[C@H]1CC[C@H]2[C@@H]3CCC4=CC(=O)CC[C@]4(C)[C@H]3CC[C@]12C
4. O=c1[nH]cnc2c1ncn2[C@H]1CC[C@@H](CO)O1

Response:
1. 112
2. 88.4
3. 125
4. 108

Please supply cell viability for each of the following items, keeping them in order.
1. CO[C@@H]1C(N(C)C(=O)c2ccccc2)C[C@H]2O[C@]1(C)n1c3ccccc3c3c4c(c5c6ccccc6n2c5c31)C(=O)NC4=O (stereo partly specified)
2. CC(C)NCC(O)COc1ccc(CCOCC2CC2)cc1 (stereo unspecified)
3. CC(=O)O[C@@]12CO[C@@H]1C[C@H](O)[C@]3(C)[C@@H]2[C@H](OC(=O)C4=CC=CC=C4)[C@]5(O)C[C@H](OC(=O)C(O)[C@@H](NC(=O)OC(C)(C)C)C6=CC=CC=C6)C(=C(/[C@@H](O)C3=O)C5(C)C)/C (stereo partly specified)
4. CCCCCCCCc1ccc(CCC(N)(CO)CO)cc1
5. CCN1C[C@]2(OC(=O)c3ccccc3NC(C)=O)CC[C@H](OC)[C@@]34[C@@H]2C[C@@H]([C@@H]13)[C@@]1(O)C[C@H](OC)[C@H]2C[C@@H]4[C@]1(O)[C@H]2OC
6. C=CCn1c(=O)c2cnc(Nc3ccc(N4CCN(C)CC4)cc3)nc2n1-c1cccc(C(C)(C)O)n1
7. CN(C)CCN(Cc1ccc(Cl)cc1)c1ccccn1.Cl
8. Cc1ccc(C(=O)c2cc(O)c(O)c([N+](=O)[O-])c2)cc1

Response:
1: 99; 2: 115; 3: 24.8; 4: 101; 5: 106; 6: 99.3; 7: 97.5; 8: 104

Please supply cell viability for each of the following items, keeping them in order.
1. O=C1CCc2ccc(OCCCCN3CCN(c4cccc(Cl)c4Cl)CC3)cc2N1
2. CN[C@@H]1C[C@H]2O[C@@](C)([C@@H]1OC)n1c3ccccc3c3c4c(c5c6ccccc6n2c5c31)C(=O)N[C@H]4O
3. CN(C)CC/C=C1/c2ccccc2COc2ccc(CC(=O)O)cc21

Response:
1: 104; 2: 63.7; 3: 122
